Biological target: T1, CRBN, Q96SW2;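 also: pooled lentiviral library of zinc finger degron-EGFP fusions in mCherry-positive Jurkat cells, FACS-sorted after compound exposure, with degron abundance counted by next-generation sequencing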
T1 chain: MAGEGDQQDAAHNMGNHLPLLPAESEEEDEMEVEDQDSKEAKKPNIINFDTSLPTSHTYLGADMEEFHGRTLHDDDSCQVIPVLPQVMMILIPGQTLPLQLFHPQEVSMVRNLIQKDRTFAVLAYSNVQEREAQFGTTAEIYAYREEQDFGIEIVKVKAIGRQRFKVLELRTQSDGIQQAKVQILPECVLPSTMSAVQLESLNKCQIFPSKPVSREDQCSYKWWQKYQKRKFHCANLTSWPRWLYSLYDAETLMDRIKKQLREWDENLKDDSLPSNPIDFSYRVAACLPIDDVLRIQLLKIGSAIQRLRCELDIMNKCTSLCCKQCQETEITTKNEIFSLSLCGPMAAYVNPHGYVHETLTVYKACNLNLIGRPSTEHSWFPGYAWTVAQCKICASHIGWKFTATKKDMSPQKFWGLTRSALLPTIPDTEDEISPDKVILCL
Test: log2 fold change of degron read counts, EGFP-low vs EGFP+ sorted cells (limma voom), compound-induced degradation; higher = more compound-induced degradation of the degron-EGFP fusion; degrons are variants of IKZF1/3 zinc finger 2; compound dose not given here
Conditions: Jurkat; 18 h; compound: compound 22 (5-morpholino-thalidomide)
Whole data set: some 8,300 sequences, median “log2 fold change of degron read counts, EGFP-low vs EGFP+ sorted cells (limma voom), compound-induced degradation” near -1.1, cut for the highest 2% near 3.2. The sample holds the highest values, similar sequences and a random draw of the others, so the mix is not that of the screen.
assay-metric: log2 fold change of degron read counts
Would you mind answering with just the numeric figure?

Item FQCNQCGANFTQKGNLLRHIKL [46F_47Q_49N_50Q_52G_53A_54N_55F_67L_, Q9UKT9] has what recorded log2 fold change of degron read counts?
-1.57

// repeat for FWCNVCGATFTQKGNLLRHIKL [46F_47W_49N_50V_52G_53A_54T_55F_67L_, Q9UKT9] and report
1.95

// repeat for FCCNVCGAWFTQKGNLLRHIKL [46F_47C_49N_50V_52G_53A_54W_55F_67L_, Q9UKT9] and report
-1.43

// repeat for FSCEICGALFTQKGNLLRHIKL [46F_47S_49E_50I_52G_53A_54L_55F_67L_, Q9UKT9] and report
0.0276

// repeat for FCCEICGAFFTQKGNLLRHIKL [46F_47C_49E_50I_52G_53A_54F_55F_67L_, Q9UKT9] and report
-0.0744

// repeat for FQCSVCGHDFTQKGNLLRHIKL [46F_47Q_49S_50V_52G_53H_54D_55F_67L_, Q9UKT9] and report
-3.8

// repeat for FECDVCGAHFTQKGNLLRHIKL [46F_47E_49D_50V_52G_53A_54H_55F_67L_, Q9UKT9] and report
-4.09

// repeat for FTCEICGARFTQKGNLLRHIKL [46F_47T_49E_50I_52G_53A_54R_55F_67L_, Q9UKT9] and report
3.12

// repeat for FNCEICGARFTQKGNLLRHIKL [46F_47N_49E_50I_52G_53A_54R_55F_67L_, Q9UKT9] and report
0.909

// repeat for FCCEICGARFTQKGNLLRHIKL [46F_47C_49E_50I_52G_53A_54R_55F_67L_, Q9UKT9] and report
3.01

// repeat for FICDVCGAWFTQKGNLLRHIKL [46F_47I_49D_50V_52G_53A_54W_55F_67L_, Q9UKT9] and report
-1.74

// repeat for FKCEICGARFTQKGNLLRHIKL [46F_47K_49E_50I_52G_53A_54R_55F_67L_, Q9UKT9] and report
-3.6

// repeat for FYCPICGRAFTQKGNLLRHIKL [46F_47Y_49P_50I_52G_53R_54A_55F_67L_, Q9UKT9] and report
-2.69

// repeat for FACEICGAFFTQKGNLLRHIKL [46F_47A_49E_50I_52G_53A_54F_55F_67L_, Q9UKT9] and report
0.556

// repeat for FYCEICGAFFTQKGNLLRHIKL [46F_47Y_49E_50I_52G_53A_54F_55F_67L_, Q9UKT9] and report
3.27
